B1: F1*; the commonest letter at each place (parent)
chain: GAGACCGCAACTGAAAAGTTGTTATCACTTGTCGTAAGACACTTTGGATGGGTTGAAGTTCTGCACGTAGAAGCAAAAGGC

variants of: B1; assay: fraction ligated after 30 min (ligated reads / total reads); higher = more ligase activity; conditions: with F1*sub RNA substrate (template-directed ligation), 42 °C
Here, each record is paired with measured fraction ligated data.
Field format: numeric only.

Reference set (3 entries):
A24C G34T: 0.648
A27G T30C: 0.811
G31C T49A: 0.0574

## Task Can you look up the measured fraction ligated of A24T T32A for me?
## Result 0.153

## Task Continue with G31T T49C
## Result 0.0332
